# System: SNB-75
# protocol.summary: Cytotoxicity against human SNB75 cells assessed as growth inhibition at 10 uM after 24 hrs by SRB assay
# Format: functional
# protocol.conditions: SNB-75, 24 h, read-out: GI
Reported inhibition of growth at 10 µM is given for each of the following molecules.
property.label: inhibition of growth at 10 µM (%)

smiles_representation=COc1nc(OC)nc(-c2cc(C(=O)c3cc(OC)c(OC)c(OC)c3)n3ccc(C)cc23)n1 property_label="inhibition of growth at 10 µM" endpoint_value=58
smiles_representation=COc1nc(OC)nc(-c2cc(C(=O)c3ccc(Cl)cc3)n3ccccc23)n1 property_label="inhibition of growth at 10 µM" endpoint_value=-3
smiles_representation=COc1nc(OC)nc(-c2cc(C(=O)c3cc(OC)c(OC)c(OC)c3)n3c(C)cccc23)n1 property_label="inhibition of growth at 10 µM" endpoint_value=67
smiles_representation=COc1nc(OC)nc(-c2cc(C(=O)c3ccc(Br)cc3)n3ccc4ccccc4c23)n1 property_label="inhibition of growth at 10 µM" endpoint_value=75
smiles_representation=COc1nc(OC)nc(-c2cc(C(=O)c3ccc(C)cc3)n3ccc(C#N)cc23)n1 property_label="inhibition of growth at 10 µM" endpoint_value=-14
smiles_representation=COc1nc(OC)nc(-c2cc(C(=O)c3ccc(Br)cc3)n3ccc(C#N)cc23)n1 property_label="inhibition of growth at 10 µM" endpoint_value=27
smiles_representation=COc1nc(OC)nc(-c2cc(C(=O)c3ccc(Br)cc3)n3c2ccc2ccccc23)n1 property_label="inhibition of growth at 10 µM" endpoint_value=69
smiles_representation=COc1nc(OC)nc(-c2cc(C(=O)c3ccc(Br)cc3)n3ccccc23)n1 property_label="inhibition of growth at 10 µM" endpoint_value=-5
smiles_representation=COc1nc(OC)nc(-c2cc(C(=O)c3cc(OC)c(OC)c(OC)c3)n3c(-c4ccccc4)cccc23)n1 property_label="inhibition of growth at 10 µM" endpoint_value=23

====

# Tested on: CAKI-1
# protocol.summary: Cytotoxicity against human CAKI-1 cells assessed as growth inhibition at 10 uM after 24 hrs by SRB assay
# Format: functional
Calls of active or inactive are those of the source. The calls are words filed in the database; no cut-off is given here.
property.label: growth inhibition (GI)

smiles_representation=COc1ccc(C(=O)c2cc(-c3nc(OC)nc(OC)n3)c3cc(C#N)ccn23)cc1 property_label="growth inhibition (GI)" endpoint_value=inactive
smiles_representation=COc1nc(OC)nc(-c2cc(C(=O)c3ccc(C)cc3)n3ccc(C#N)cc23)n1 property_label="growth inhibition (GI)" endpoint_value=inactive
smiles_representation=COc1nc(OC)nc(-c2cc(C(=O)c3ccc(Cl)cc3)n3ccccc23)n1 property_label="growth inhibition (GI)" endpoint_value=inactive
smiles_representation=COc1nc(OC)nc(-c2cc(C(=O)c3cc(OC)c(OC)c(OC)c3)n3ccccc23)n1 property_label="growth inhibition (GI)" endpoint_value=inactive
smiles_representation=COc1nc(OC)nc(-c2cc(C(=O)c3ccc(Br)cc3)n3ccc(C)cc23)n1 property_label="growth inhibition (GI)" endpoint_value=inactive
smiles_representation=COc1nc(OC)nc(-c2cc(C(=O)c3ccc(Br)cc3)n3ccc(C#N)cc23)n1 property_label="growth inhibition (GI)" endpoint_value=inactive
smiles_representation=COc1nc(OC)nc(-c2cc(C(=O)c3ccc(Br)cc3)n3c(C)cccc23)n1 property_label="growth inhibition (GI)" endpoint_value=inactive

These measurements were taken from ChEMBL document CHEMBL3612057.
